Tested on: S. typhimurium ATCC 13311 DMST 562
Assay: microbe, parasite or virus in culture
Format: cell-based
Details: Salmonella enterica, read-out: Concentration of MBC
Measured Attribute: MBC

{"Compound": "O=C(N[C@H](CO)[C@H](O)c1ccc([N+](=O)[O-])cc1)C(Cl)Cl [Chloramphenicol, reference compound]", "Measured On": "S. typhimurium ATCC 13311 DMST 562", "MBC": "125 µg/mL"}

Ask: Hello, please tell me recorded MBC for this one: COc1ccc2c(c1)O[C@@H]1COc3cc(OC)c(OC)cc3[C@H]1[C@@H]2O [Compound 2, 6aS, 12aS, 12S-munduserol]
Reply: > 3000 µg/mL

Ask: Check the records and state MBC for COc1ccc2c(=O)c3c(oc2c1)COc1cc(OC)c(OC)cc1-3 [Compound 3, dehydromunduserone]
Reply: > 3000 µg/mL

Ask: Specify reported MBC for the compound shown: COc1cc2c(cc1OC)[C@H]1[C@H](O)c3ccc4occc4c3O[C@@H]1CO2 [Compound 1, 6aS, 12aS, 12S-elliptinol]
Reply: > 3000 µg/mL

====

Test system: S. typhimurium ATCC 13311 DMST 562
Experiment: microbe, parasite or virus in culture
Assay type: cell-based
Conditions: Salmonella enterica, read-out: Concentration of MIC
// MIC lookup, one value per entry
Field: numeric (µg/mL). Do not append units.

Completed entries (count: 2):
{"Molecule": "COc1cc2c(cc1OC)[C@H]1[C@H](O)c3ccc4occc4c3O[C@@H]1CO2 [Compound 1, 6aS, 12aS, 12S-elliptinol]", "Value Unit": "µg/mL", "MIC": 3000}
{"Molecule": "COc1ccc2c(=O)c3c(oc2c1)COc1cc(OC)c(OC)cc1-3 [Compound 3, dehydromunduserone]", "Value Unit": "µg/mL", "MIC": 3000}

Pending molecule:
Ask: Dear colleague, please send me the reported MIC for COc1ccc2c(c1)O[C@@H]1COc3cc(OC)c(OC)cc3[C@H]1[C@@H]2O [Compound 2, 6aS, 12aS, 12S-munduserol] when you can.
Reply: 3000

====

The entries below come with measured MBC values attached.
Tested on: P. mirabilis DMST 8212
Assay: microbe, parasite or virus in culture
Type: cell-based
Conditions: Proteus mirabilis, DMST8212, read-out: Concentration of MBC

{"Compound": "O=C(N[C@H](CO)[C@H](O)c1ccc([N+](=O)[O-])cc1)C(Cl)Cl [Chloramphenicol, reference compound]", "Result": "31.2 µg/mL"}
{"Compound": "COc1ccc2c(=O)c3c(oc2c1)COc1cc(OC)c(OC)cc1-3 [Compound 3, dehydromunduserone]", "Result": "> 3000 µg/mL"}
{"Compound": "COc1ccc2c(c1)O[C@@H]1COc3cc(OC)c(OC)cc3[C@H]1[C@@H]2O [Compound 2, 6aS, 12aS, 12S-munduserol]", "Result": "> 3000 µg/mL"}

Let us move to another entry and its MBC.
Ask: Check the records and state MBC for COc1cc2c(cc1OC)[C@H]1[C@H](O)c3ccc4occc4c3O[C@@H]1CO2 [Compound 1, 6aS, 12aS, 12S-elliptinol]
Reply: > 3000 µg/mL

====

The reader will find reported EC50 values listed item by item below.
System: ΔTat/RevMC99 virus in 1A2 cells
Assay: Anti-syncytium (MC99 + 1A2) cell-based assay for anti-HIV-1
Details: Human immunodeficiency virus 1, 1A2, read-out: Anti-syncytium (MC99+1A2) EC50
Method: Anti-HIV1-RT assays of the crude extracts and isolated compounds were evaluated according to the standard methods described in previous literature. Cell-based assays for anti-HIV-1 RT of the crude extracts and isolated compounds were evaluated according to the standard methods described in previous literature […]
# output: bare number, implied unit µM

Record excerpt, results attached:
{"Compound": "COc1ccc2c(c1)O[C@@H]1COc3cc(OC)c(OC)cc3[C@H]1[C@@H]2O [Compound 2, 6aS, 12aS, 12S-munduserol]", "EC50 / µM": 4.99}
{"Compound": "COc1cc2c(cc1OC)[C@H]1[C@H](O)c3ccc4occc4c3O[C@@H]1CO2 [Compound 1, 6aS, 12aS, 12S-elliptinol]", "EC50 / µM": 4.48}

Ask: Give a short answer stating reported EC50 for COc1ccc2c(=O)c3c(oc2c1)COc1cc(OC)c(OC)cc1-3 [Compound 3, dehydromunduserone] .
Reply: 91
